Target: T1, full-length beta-Catenin (Uniprot ID P35222) (Homo sapiens (Human), UniProt P35222 1-781)
T1 construct: The assay protocols call it full-length; also called B-Catenin; bCat
T1 sequence: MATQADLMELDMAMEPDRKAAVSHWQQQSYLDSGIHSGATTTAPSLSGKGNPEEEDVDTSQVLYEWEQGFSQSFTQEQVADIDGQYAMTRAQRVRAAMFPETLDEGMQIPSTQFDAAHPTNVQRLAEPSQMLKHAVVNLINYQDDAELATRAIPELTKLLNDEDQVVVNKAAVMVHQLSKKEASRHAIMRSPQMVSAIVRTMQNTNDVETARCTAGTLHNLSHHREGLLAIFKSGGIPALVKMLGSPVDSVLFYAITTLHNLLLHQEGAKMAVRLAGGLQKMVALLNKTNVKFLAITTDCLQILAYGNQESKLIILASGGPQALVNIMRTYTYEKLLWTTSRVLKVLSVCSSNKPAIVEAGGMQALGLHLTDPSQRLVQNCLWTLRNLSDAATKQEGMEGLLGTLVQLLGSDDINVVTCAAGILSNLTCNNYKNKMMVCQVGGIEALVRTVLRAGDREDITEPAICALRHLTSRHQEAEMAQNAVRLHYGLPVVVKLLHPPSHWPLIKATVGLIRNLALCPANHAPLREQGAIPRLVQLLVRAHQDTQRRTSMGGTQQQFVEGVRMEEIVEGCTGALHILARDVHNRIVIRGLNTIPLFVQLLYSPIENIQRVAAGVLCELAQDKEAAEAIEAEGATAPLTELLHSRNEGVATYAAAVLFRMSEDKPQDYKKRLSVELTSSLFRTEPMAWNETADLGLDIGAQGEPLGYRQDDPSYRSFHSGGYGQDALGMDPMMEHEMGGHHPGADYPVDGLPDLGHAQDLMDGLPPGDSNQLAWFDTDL
Experiment: AlphaScreen competition; full-length beta-catenin with biotin-labelled TCF4 10-53 peptide as competitor
Starred links: 1 amine or outer side, 2 acyl side, 3 side chain; linkers in the order of their positions; H or OH if unused. Positions of bridges follow the written chain, without caps; N, C: chain ends. Non-standard residues stand in square brackets, D forms with d. Primed or numbered codes have the meaning given here. B5(17) = 2,2-bis(4-pentenyl)glycine = 2-amino-2-(pent-4-en-1-yl)hept-6-enoic acid, stitching residue, C=CCCCC(CCCC=C)(N[*:1])C(=O)[*:2]; B5(4) = 2,2-bis(4-pentenyl)glycine = 2-amino-2-(pent-4-en-1-yl)hept-6-enoic acid (stitching residue), C=CCCCC(CCCC=C)(N[*:1])C(=O)[*:2]; Phe(3-F) = N[C@@H](Cc1cccc(F)c1)C(=O)O; hTyr = N[C@@H](CCc1ccc(O)cc1)C(=O)O; αAllylPro = C=CC[C@@]1(C(=O)O)CCCN1; hPhe = N[C@@H](CCc1ccccc1)C(=O)O; 4Pal = N[C@@H](Cc1ccncc1)C(=O)O; S8 = C=CCCCCCC[C@](C)(N)C(=O)O
readout.kind: pEC50
Numbers only, as −log10 of the molar value.

[
  {
    "binder": "XDAXDDAAFVXFW (not fully specified; N-terminal Ac; PL3 at 1; B5 at 4; S8 at 11; C-terminal NH2; staples PL3(1)-B5(4) and B5(4)-S8(11) by olefin metathesis, Stapled (stitched) peptide; also called Ac-PL3-Asp-Ala-B5-Asp-Asp-Ala-Ala-Phe-Val-S8-Phe-Trp-NH2) [I-290]",
    "measured.number": 6.52
  }
]

List reported pEC50 for each of these binders:
1. XDAXDDAAFVXXWQ (not fully specified; N-terminal Ac; PL3 at 1; B5 at 4; S8 at 11; 1NapA at 12; C-terminal NH2; staples PL3(1)-B5(4) and B5(4)-S8(11) by olefin metathesis, Stapled (stitched) peptide; also called Ac-PL3-Asp-Ala-B5-Asp-Asp-Ala-Ala-Phe-Val-S8-1NapA-Trp-Gln-NH2) [I-275]
2. XEAXDDAAFVXFWQ (not fully specified; N-terminal Ac; PL3 at 1; B5 at 4; S8 at 11; C-terminal NH2; staples PL3(1)-B5(4) and B5(4)-S8(11) by olefin metathesis, Stapled (stitched) peptide; also called Ac-PL3-Glu-Ala-B5-Asp-Asp-Ala-Ala-Phe-Val-S8-Phe-Trp-Gln-NH2) [I-280]
3. Ac-[αAllylPro]DA[B5(4)]DDAA[Phe(3-F)]V[S8]FWQ-NH2 (staple 1-4, 4-11; not fully specified; printed as Ac-PL3-Asp-Ala-B5-Asp-Asp-Ala-Ala-3FF-Val-S8-Phe-Trp-Gln-NH2, Stapled (stitched) peptide; also called Ac-PL3-Asp-Ala-B5-Asp-Asp-Ala-Ala-3FF-Val-S8-Phe-Trp-Gln-NH2) [I-265]
4. XDAXEDAAFVXFWQ (not fully specified; N-terminal Ac; PL3 at 1; B5 at 4; S8 at 11; C-terminal NH2; staples PL3(1)-B5(4) and B5(4)-S8(11) by olefin metathesis, Stapled (stitched) peptide; also called Ac-PL3-Asp-Ala-B5-Glu-Asp-Ala-Ala-Phe-Val-S8-Phe-Trp-Gln-NH2) [I-281]
5. Ac-[αAllylPro]DA[B5(17)]D[4Pal]AAFV[S8]FWQ-NH2 (staple 1-4, 4-11, Stapled (stitched) peptide; also called Ac-PL3-Asp-Ala-B5-Asp-4PyrA-Ala-Ala-Phe-Val-S8-Phe-Trp-Gln-NH2) [I-272]

1. 6.07
2. 5.52
3. 6.71
4. 5.20
5. 6.00

List reported pEC50 for each of these binders:
1. XDAXEDAAFVXFWQ (not fully specified; N-terminal Ac; PL3 at 1; B5 at 4; S8 at 11; C-terminal NH2; staples PL3(1)-B5(4) and B5(4)-S8(11) by olefin metathesis, Stapled (stitched) peptide; also called Ac-PL3-Asp-Ala-B5-Glu-Asp-Ala-Ala-Phe-Val-S8-Phe-Trp-Gln-NH2) [I-282]
2. XDAXDDAAFVXXWQ (not fully specified; N-terminal Ac; PL3 at 1; B5 at 4; S8 at 11; 1NapA at 12; C-terminal NH2; staples PL3(1)-B5(4) and B5(4)-S8(11) by olefin metathesis, Stapled (stitched) peptide; also called Ac-PL3-Asp-Ala-B5-Asp-Asp-Ala-Ala-Phe-Val-S8-1NapA-Trp-Gln-NH2) [I-276]
3. Ac-[αAllylPro]DA[B5(17)]DDAAFV[S8][hPhe]WQ-NH2 (staple 1-4, 4-11, Stapled (stitched) peptide; also called Ac-PL3-Asp-Ala-B5-Asp-Asp-Ala-Ala-Phe-Val-S8-hPhe-Trp-Gln-NH2) [I-268]

1. 5.45
2. 6.48
3. 5.40

List reported pEC50 for each of these binders:
1. Ac-[αAllylPro]DA[B5(4)]DDAAFV[S8]DWQ-NH2 (staple 1-4, 4-11, Stapled (stitched) peptide; also called Ac-PL3-Asp-Ala-B5-Asp-Asp-Ala-Ala-Phe-Val-S8-Asp-Trp-Gln-NH2) [I-283]
2. Ac-[αAllylPro]DA[B5(17)]DDAAFV[S8][hTyr]WQ-NH2 (staple 1-4, 4-11, Stapled (stitched) peptide; also called Ac-PL3-Asp-Ala-B5-Asp-Asp-Ala-Ala-Phe-Val-S8-hTyr-Trp-Gln-NH2) [I-269]
3. XDAXDDAAFVXFW (not fully specified; N-terminal Ac; PL3 at 1; B5 at 4; S8 at 11; C-terminal NH2; staples PL3(1)-B5(4) and B5(4)-S8(11) by olefin metathesis, Stapled (stitched) peptide; also called Ac-PL3-Asp-Ala-B5-Asp-Asp-Ala-Ala-Phe-Val-S8-Phe-Trp-NH2) [I-289]

[5.02, 5.27, 6.20]
